# System: Epidermal growth factor receptor (Homo sapiens), P00533 [L861Q]
# Sequence (P00533 whole entry L861Q): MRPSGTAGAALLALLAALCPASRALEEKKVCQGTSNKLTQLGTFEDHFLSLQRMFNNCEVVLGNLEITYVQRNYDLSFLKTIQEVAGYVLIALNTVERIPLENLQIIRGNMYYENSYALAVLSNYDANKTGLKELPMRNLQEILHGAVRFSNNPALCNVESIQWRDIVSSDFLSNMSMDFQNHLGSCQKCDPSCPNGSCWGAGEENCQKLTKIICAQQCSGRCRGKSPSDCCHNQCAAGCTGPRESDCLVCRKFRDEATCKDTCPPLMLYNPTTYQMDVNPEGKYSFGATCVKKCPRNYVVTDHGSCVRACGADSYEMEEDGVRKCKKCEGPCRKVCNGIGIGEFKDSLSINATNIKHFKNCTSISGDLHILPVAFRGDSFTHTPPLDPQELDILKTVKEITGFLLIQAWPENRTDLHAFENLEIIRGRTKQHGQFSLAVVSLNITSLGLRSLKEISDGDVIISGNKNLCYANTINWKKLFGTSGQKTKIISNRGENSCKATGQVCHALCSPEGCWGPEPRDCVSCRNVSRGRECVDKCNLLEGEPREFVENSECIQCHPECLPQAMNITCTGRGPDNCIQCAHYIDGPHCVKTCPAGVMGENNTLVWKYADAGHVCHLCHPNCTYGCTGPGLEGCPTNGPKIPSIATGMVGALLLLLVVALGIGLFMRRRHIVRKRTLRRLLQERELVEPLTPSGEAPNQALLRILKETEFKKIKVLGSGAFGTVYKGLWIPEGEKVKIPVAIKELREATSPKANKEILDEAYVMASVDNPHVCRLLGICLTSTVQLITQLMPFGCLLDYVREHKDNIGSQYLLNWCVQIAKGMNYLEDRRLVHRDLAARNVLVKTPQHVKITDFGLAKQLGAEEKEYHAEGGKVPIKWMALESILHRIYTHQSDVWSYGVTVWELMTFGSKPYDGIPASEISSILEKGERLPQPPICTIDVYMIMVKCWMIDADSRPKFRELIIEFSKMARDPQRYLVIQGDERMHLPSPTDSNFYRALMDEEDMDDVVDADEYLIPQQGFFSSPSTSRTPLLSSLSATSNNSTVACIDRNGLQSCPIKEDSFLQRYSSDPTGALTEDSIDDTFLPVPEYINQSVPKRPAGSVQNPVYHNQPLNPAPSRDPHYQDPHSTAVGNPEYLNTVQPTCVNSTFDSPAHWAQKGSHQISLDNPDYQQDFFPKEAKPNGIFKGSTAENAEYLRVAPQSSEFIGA
# measurement_description: Inhibition of EGFR L861Q mutant at 1 uM
# Assay type: protein assay
recorded_endpoint: inhibition

Sample records with inhibition:
compound: CN1CCN(c2ccc(-c3cnc4c(c3)N(Cc3cc(Cl)ccc3Cl)CCN4)cn2)CC1
inhibition: < 50%

compound: CN1CCN(c2ccc(-c3cnc4c(c3)N(Cc3cc(Cl)ccc3C(F)(F)F)CCN4)cn2)CC1
inhibition: < 50%

compound: COC1CCN(C(=O)c2ccc(-c3cnc4c(c3)N(Cc3cc(Cl)ccc3C(F)(F)F)CCN4)cc2)CC1
inhibition: < 50%

compound: O=C(c1ccc(-c2cnc3c(c2)N(Cc2cc(Cl)ccc2C(F)(F)F)CCN3)cc1)N1CCCCC1
inhibition: < 50%

compound: CN1CCN(c2ccc(-c3cnc4c(c3)N(Cc3cc(F)ccc3F)CCN4)cn2)CC1
inhibition: < 50%

compound: O=C(O)c1ccc(-c2cnc3c(c2)N(Cc2cc(Cl)ccc2C(F)(F)F)CCN3)cc1
inhibition: < 50%

compound: CC(=O)N1CCN(c2cc(-c3cnc4c(c3)N(Cc3cc(Cl)ccc3C(F)(F)F)CCN4)ccn2)CC1
inhibition: < 50%

compound: FC(F)(F)c1ccc(Cl)cc1CN1CCNc2ncc(-c3ccnc(N4CCNCC4)c3)cc21
inhibition: < 50%

compound: CN1CCN(c2ccc(-c3cnc4c(c3)N(Cc3c(F)ccc(F)c3Cl)CCN4)cn2)CC1
inhibition: < 50%

Query molecule follows.
Lab entry: Epidermal growth factor receptor (Homo sapiens), P00533 [L861Q] assay, molecule `O=C(c1ccc(-c2cnc3c(c2)N(Cc2cc(Cl)ccc2C(F)(F)F)CCN3)cc1)N1CCC(N2CCCC2)CC1` , inhibition = < 50%

###

# target_system: Serine/threonine-protein kinase 4 (Homo sapiens) (UniProt Q13043)
# Sequence (Q13043 whole entry): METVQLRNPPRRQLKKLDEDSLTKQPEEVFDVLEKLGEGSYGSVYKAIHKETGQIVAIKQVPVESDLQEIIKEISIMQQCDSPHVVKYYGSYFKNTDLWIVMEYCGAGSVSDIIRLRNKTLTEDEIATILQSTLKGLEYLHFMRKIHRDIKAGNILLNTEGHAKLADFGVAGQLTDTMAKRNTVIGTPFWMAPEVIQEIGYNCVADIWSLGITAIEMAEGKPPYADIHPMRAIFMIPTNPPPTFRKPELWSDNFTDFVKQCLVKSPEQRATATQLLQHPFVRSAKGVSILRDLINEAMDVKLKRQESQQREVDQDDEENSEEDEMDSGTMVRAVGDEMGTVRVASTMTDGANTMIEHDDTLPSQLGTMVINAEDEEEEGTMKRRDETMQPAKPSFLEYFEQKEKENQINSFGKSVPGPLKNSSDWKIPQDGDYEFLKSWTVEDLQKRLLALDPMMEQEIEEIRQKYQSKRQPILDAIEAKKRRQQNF
# measurement_description: Inhibition of MST1 at 1 uM
Recorded inhibition by entry

Sample records with inhibition:
compound: CN1CCN(c2ccc(-c3cnc4c(c3)N(Cc3c(F)ccc(F)c3Cl)CCN4)cn2)CC1
inhibition: < 50%

compound: CN1CCN(c2ccc(-c3cnc4c(c3)N(Cc3cc(Cl)ccc3C(F)(F)F)CCN4)cn2)CC1
inhibition: < 50%

compound: CC(=O)N1CCN(c2cc(-c3cnc4c(c3)N(Cc3cc(Cl)ccc3C(F)(F)F)CCN4)ccn2)CC1
inhibition: < 50%

compound: FC(F)(F)c1ccc(Cl)cc1CN1CCNc2ncc(-c3ccnc(N4CCNCC4)c3)cc21
inhibition: 73%

compound: CN1CCN(c2ccc(-c3cnc4c(c3)N(Cc3cc(Cl)ccc3Cl)CCN4)cn2)CC1
inhibition: < 50%

Input `CN1CCN(c2ccc(-c3cnc4c(c3)N(Cc3cc(F)ccc3F)CCN4)cn2)CC1` . Output inhibition: < 50%

###

# target_system: Tyrosine-protein kinase Srms (Homo sapiens) (UniProt Q9H3Y6)
# Sequence (Q9H3Y6 whole entry): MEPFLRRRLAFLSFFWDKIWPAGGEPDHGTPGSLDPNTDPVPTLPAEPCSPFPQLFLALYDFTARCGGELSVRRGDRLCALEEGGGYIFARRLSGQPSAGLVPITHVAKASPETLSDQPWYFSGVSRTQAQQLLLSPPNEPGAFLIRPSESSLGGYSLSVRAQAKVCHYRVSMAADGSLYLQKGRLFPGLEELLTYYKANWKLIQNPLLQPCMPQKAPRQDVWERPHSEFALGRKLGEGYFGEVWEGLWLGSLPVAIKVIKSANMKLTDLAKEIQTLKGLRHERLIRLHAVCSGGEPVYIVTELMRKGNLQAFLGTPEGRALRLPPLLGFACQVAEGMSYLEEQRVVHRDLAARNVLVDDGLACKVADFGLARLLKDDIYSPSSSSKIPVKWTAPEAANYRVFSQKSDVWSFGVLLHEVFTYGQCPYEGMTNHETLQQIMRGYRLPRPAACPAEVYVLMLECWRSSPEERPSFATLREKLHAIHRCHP
# measurement_description: Inhibition of SRMS at 1 uM
Recorded inhibition by entry

compound: O=C(c1ccc(-c2cnc3c(c2)N(Cc2cc(Cl)ccc2C(F)(F)F)CCN3)cc1)N1CCC(N2CCCC2)CC1
inhibition: < 50%
--
compound: FC(F)(F)c1ccc(Cl)cc1CN1CCNc2ncc(-c3ccnc(N4CCNCC4)c3)cc21
inhibition: < 50%
--
compound: CN1CCN(c2ccc(-c3cnc4c(c3)N(Cc3cc(Cl)ccc3C(F)(F)F)CCN4)cn2)CC1
inhibition: < 50%
--
compound: CN1CCN(c2ccc(-c3cnc4c(c3)N(Cc3c(F)ccc(F)c3Cl)CCN4)cn2)CC1
inhibition: < 50%
--
compound: CC(=O)N1CCN(c2cc(-c3cnc4c(c3)N(Cc3cc(Cl)ccc3C(F)(F)F)CCN4)ccn2)CC1
inhibition: < 50%
--
compound: CN1CCN(c2ccc(-c3cnc4c(c3)N(Cc3cc(F)ccc3F)CCN4)cn2)CC1
inhibition: < 50%
--
compound: CN1CCN(c2ccc(-c3cnc4c(c3)N(Cc3cc(Cl)ccc3Cl)CCN4)cn2)CC1
inhibition: < 50%

Query molecule follows.
Lab entry: Tyrosine-protein kinase Srms (Homo sapiens) (UniProt Q9H3Y6) assay, molecule `COC1CCN(C(=O)c2ccc(-c3cnc4c(c3)N(Cc3cc(Cl)ccc3C(F)(F)F)CCN4)cc2)CC1` , inhibition = < 50%

###

# target_system: Focal adhesion kinase 1 (Homo sapiens)
# measurement_description: Inhibition of FAK at 1 uM
recorded_endpoint: inhibition (%)

Sample records with inhibition:
compound: COC1CCN(C(=O)c2ccc(-c3cnc4c(c3)N(Cc3cc(Cl)ccc3C(F)(F)F)CCN4)cc2)CC1
inhibition [%]: 94

compound: O=C(c1ccc(-c2cnc3c(c2)N(Cc2cc(Cl)ccc2C(F)(F)F)CCN3)cc1)N1CCC(N2CCCC2)CC1
inhibition [%]: 98.9

compound: FC(F)(F)c1ccc(Cl)cc1CN1CCNc2ncc(-c3ccnc(N4CCNCC4)c3)cc21
inhibition [%]: 100

(a) CN1CCN(c2ccc(-c3cnc4c(c3)N(Cc3cc(F)ccc3F)CCN4)cn2)CC1
(b) CN1CCN(c2ccc(-c3cnc4c(c3)N(Cc3cc(Cl)ccc3C(F)(F)F)CCN4)cn2)CC1
I'm curious whether a or b has the smaller inhibition number. Which is it? The response must carry the label of the picked entry.
a

###

# target_system: Mitogen-activated protein kinase kinase kinase 2 (Homo sapiens) (UniProt Q9Y2U5)
# Sequence (Q9Y2U5 whole entry): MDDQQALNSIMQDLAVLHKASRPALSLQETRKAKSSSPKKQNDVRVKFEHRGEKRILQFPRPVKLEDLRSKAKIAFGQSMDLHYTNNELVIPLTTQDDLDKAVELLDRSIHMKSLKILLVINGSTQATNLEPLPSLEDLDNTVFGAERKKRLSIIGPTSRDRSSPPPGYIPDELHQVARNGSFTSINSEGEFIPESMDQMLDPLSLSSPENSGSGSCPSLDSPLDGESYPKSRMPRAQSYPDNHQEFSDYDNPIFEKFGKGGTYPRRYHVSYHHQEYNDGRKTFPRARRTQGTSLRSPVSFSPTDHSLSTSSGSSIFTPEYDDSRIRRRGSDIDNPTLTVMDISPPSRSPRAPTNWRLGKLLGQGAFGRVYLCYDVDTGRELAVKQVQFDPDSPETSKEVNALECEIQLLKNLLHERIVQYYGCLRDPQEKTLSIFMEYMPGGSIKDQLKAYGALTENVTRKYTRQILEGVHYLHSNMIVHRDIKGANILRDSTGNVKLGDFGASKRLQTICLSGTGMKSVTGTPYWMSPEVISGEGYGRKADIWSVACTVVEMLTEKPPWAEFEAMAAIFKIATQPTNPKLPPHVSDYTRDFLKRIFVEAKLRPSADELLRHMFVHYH
# measurement_description: Inhibition of MAP3K2 at 1 uM
recorded_endpoint: inhibition (%)

compound: CC(=O)N1CCN(c2cc(-c3cnc4c(c3)N(Cc3cc(Cl)ccc3C(F)(F)F)CCN4)ccn2)CC1
inhibition [%]: 81
//
compound: CN1CCN(c2ccc(-c3cnc4c(c3)N(Cc3cc(Cl)ccc3C(F)(F)F)CCN4)cn2)CC1
inhibition [%]: 74
//
compound: FC(F)(F)c1ccc(Cl)cc1CN1CCNc2ncc(-c3ccnc(N4CCNCC4)c3)cc21
inhibition [%]: 93

###

# target_system: Leukocyte tyrosine kinase receptor (Homo sapiens)
# measurement_description: Inhibition of LTK at 1 uM
recorded_endpoint: inhibition (%)

compound: CN1CCN(c2ccc(-c3cnc4c(c3)N(Cc3cc(Cl)ccc3C(F)(F)F)CCN4)cn2)CC1
target_system: Leukocyte tyrosine kinase receptor (Homo sapiens)
measured_value: 99

compound: CN1CCN(c2ccc(-c3cnc4c(c3)N(Cc3c(F)ccc(F)c3Cl)CCN4)cn2)CC1
target_system: Leukocyte tyrosine kinase receptor (Homo sapiens)
measured_value: 97

compound: O=C(O)c1ccc(-c2cnc3c(c2)N(Cc2cc(Cl)ccc2C(F)(F)F)CCN3)cc1
target_system: Leukocyte tyrosine kinase receptor (Homo sapiens)
measured_value: 92.7

compound: O=C(c1ccc(-c2cnc3c(c2)N(Cc2cc(Cl)ccc2C(F)(F)F)CCN3)cc1)N1CCC(N2CCCC2)CC1
target_system: Leukocyte tyrosine kinase receptor (Homo sapiens)
measured_value: 80.7

compound: O=C(c1ccc(-c2cnc3c(c2)N(Cc2cc(Cl)ccc2C(F)(F)F)CCN3)cc1)N1CCCCC1
target_system: Leukocyte tyrosine kinase receptor (Homo sapiens)
measured_value: 89.3

compound: FC(F)(F)c1ccc(Cl)cc1CN1CCNc2ncc(-c3ccnc(N4CCNCC4)c3)cc21
target_system: Leukocyte tyrosine kinase receptor (Homo sapiens)
measured_value: 100

compound: COC1CCN(C(=O)c2ccc(-c3cnc4c(c3)N(Cc3cc(Cl)ccc3C(F)(F)F)CCN4)cc2)CC1
target_system: Leukocyte tyrosine kinase receptor (Homo sapiens)
measured_value: 95.5

compound: CN1CCN(c2ccc(-c3cnc4c(c3)N(Cc3cc(Cl)ccc3Cl)CCN4)cn2)CC1
target_system: Leukocyte tyrosine kinase receptor (Homo sapiens)
measured_value: 97

compound: CC(=O)N1CCN(c2cc(-c3cnc4c(c3)N(Cc3cc(Cl)ccc3C(F)(F)F)CCN4)ccn2)CC1
target_system: Leukocyte tyrosine kinase receptor (Homo sapiens)
measured_value: 99

compound: CN1CCN(c2ccc(-c3cnc4c(c3)N(Cc3cc(F)ccc3F)CCN4)cn2)CC1
target_system: Leukocyte tyrosine kinase receptor (Homo sapiens)
measured_value: 96.8

###

# target_system: BMP-2-inducible protein kinase (Homo sapiens) (UniProt Q9NSY1)
# Sequence (Q9NSY1 whole entry, looked up): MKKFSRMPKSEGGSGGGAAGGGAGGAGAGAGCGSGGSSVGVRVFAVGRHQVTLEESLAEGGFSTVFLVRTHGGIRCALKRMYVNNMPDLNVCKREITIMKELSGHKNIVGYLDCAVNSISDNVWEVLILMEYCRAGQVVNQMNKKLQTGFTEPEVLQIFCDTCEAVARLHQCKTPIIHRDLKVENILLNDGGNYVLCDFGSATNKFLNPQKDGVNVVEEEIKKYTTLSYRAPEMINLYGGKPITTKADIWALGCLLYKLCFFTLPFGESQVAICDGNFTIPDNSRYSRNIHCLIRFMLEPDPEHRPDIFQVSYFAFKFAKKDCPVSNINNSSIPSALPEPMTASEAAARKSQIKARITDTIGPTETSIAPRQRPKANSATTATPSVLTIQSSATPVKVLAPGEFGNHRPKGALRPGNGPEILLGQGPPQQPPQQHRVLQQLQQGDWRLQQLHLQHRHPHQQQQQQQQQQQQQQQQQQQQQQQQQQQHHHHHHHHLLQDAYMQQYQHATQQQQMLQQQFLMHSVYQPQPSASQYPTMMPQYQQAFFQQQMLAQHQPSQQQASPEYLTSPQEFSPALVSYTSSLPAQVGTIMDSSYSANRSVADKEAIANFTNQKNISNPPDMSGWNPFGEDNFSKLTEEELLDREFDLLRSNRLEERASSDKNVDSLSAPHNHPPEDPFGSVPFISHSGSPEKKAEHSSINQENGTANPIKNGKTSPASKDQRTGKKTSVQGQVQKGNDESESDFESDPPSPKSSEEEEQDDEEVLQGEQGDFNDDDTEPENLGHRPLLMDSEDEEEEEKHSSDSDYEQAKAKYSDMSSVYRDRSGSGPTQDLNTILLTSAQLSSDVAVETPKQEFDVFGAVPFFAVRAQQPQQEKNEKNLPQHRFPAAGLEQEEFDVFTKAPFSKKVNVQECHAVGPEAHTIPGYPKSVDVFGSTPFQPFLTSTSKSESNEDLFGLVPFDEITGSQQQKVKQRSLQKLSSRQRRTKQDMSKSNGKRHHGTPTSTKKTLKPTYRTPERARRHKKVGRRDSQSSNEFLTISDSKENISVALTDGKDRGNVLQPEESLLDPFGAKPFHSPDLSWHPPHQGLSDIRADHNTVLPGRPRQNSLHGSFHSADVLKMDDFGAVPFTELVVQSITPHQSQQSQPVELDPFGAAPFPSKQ
# measurement_description: Inhibition of BIKE at 1 uM
recorded_endpoint: inhibition

Sample records with inhibition:
compound: COC1CCN(C(=O)c2ccc(-c3cnc4c(c3)N(Cc3cc(Cl)ccc3C(F)(F)F)CCN4)cc2)CC1
recorded_endpoint: inhibition
measured_value: < 50%

compound: FC(F)(F)c1ccc(Cl)cc1CN1CCNc2ncc(-c3ccnc(N4CCNCC4)c3)cc21
recorded_endpoint: inhibition
measured_value: < 50%

compound: O=C(O)c1ccc(-c2cnc3c(c2)N(Cc2cc(Cl)ccc2C(F)(F)F)CCN3)cc1
recorded_endpoint: inhibition
measured_value: < 50%

compound: CN1CCN(c2ccc(-c3cnc4c(c3)N(Cc3c(F)ccc(F)c3Cl)CCN4)cn2)CC1
recorded_endpoint: inhibition
measured_value: < 50%

compound: CN1CCN(c2ccc(-c3cnc4c(c3)N(Cc3cc(Cl)ccc3Cl)CCN4)cn2)CC1
recorded_endpoint: inhibition
measured_value: < 50%

Lab entry: BMP-2-inducible protein kinase (Homo sapiens) (UniProt Q9NSY1) assay, compound `O=C(c1ccc(-c2cnc3c(c2)N(Cc2cc(Cl)ccc2C(F)(F)F)CCN3)cc1)N1CCCCC1` , inhibition = < 50%

Lab entry: BMP-2-inducible protein kinase (Homo sapiens) (UniProt Q9NSY1) assay, compound `O=C(c1ccc(-c2cnc3c(c2)N(Cc2cc(Cl)ccc2C(F)(F)F)CCN3)cc1)N1CCC(N2CCCC2)CC1` , inhibition = 84%

Lab entry: BMP-2-inducible protein kinase (Homo sapiens) (UniProt Q9NSY1) assay, compound `CN1CCN(c2ccc(-c3cnc4c(c3)N(Cc3cc(F)ccc3F)CCN4)cn2)CC1` , inhibition = < 50%

Lab entry: BMP-2-inducible protein kinase (Homo sapiens) (UniProt Q9NSY1) assay, compound `CC(=O)N1CCN(c2cc(-c3cnc4c(c3)N(Cc3cc(Cl)ccc3C(F)(F)F)CCN4)ccn2)CC1` , inhibition = < 50%

Lab entry: BMP-2-inducible protein kinase (Homo sapiens) (UniProt Q9NSY1) assay, compound `CN1CCN(c2ccc(-c3cnc4c(c3)N(Cc3cc(Cl)ccc3C(F)(F)F)CCN4)cn2)CC1` , inhibition = < 50%

Origin of the recorded values: ChEMBL document CHEMBL1165965
